Details: in methanol, 313.15 K
result.type: solubility (mole fraction)
// no unit, no text: just the number

Enquiry: // returns reported solubility (mole fraction) for input "NC[C@H]1O[C@H](O[C@H]2[C@H](O)[C@@H](O[C@H]3O[C@H](CO)[C@@H](O)[C@H](N)[C@H]3O)[C@H](N)C[C@@H]2N)[C@H](N)C[C@@H]1O"
Return: 0.000635

###

Details: in methanol, 308.15 K
result.type: solubility (mole fraction)
// no unit, no text: just the number

Enquiry: // returns reported solubility (mole fraction) for input "NC[C@H]1O[C@H](O[C@H]2[C@H](O)[C@@H](O[C@H]3O[C@H](CO)[C@@H](O)[C@H](N)[C@H]3O)[C@H](N)C[C@@H]2N)[C@H](N)C[C@@H]1O"
Return: 0.000433

###

Details: in DMF, 313.15 K
result.type: solubility (mole fraction)
// no unit, no text: just the number

Enquiry: // returns reported solubility (mole fraction) for input "NC[C@H]1O[C@H](O[C@H]2[C@H](O)[C@@H](O[C@H]3O[C@H](CO)[C@@H](O)[C@H](N)[C@H]3O)[C@H](N)C[C@@H]2N)[C@H](N)C[C@@H]1O"
Return: 0.000663

###

Conditions: in DMF, 293.15 K
result.type: solubility (mole fraction)
// no unit, no text: just the number

Enquiry: // returns reported solubility (mole fraction) for input "NC[C@H]1O[C@H](O[C@H]2[C@H](O)[C@@H](O[C@H]3O[C@H](CO)[C@@H](O)[C@H](N)[C@H]3O)[C@H](N)C[C@@H]2N)[C@H](N)C[C@@H]1O"
Return: 0.000144

###

Conditions: in ethanol, 293.15 K
result.type: solubility (mole fraction)
// no unit, no text: just the number

Enquiry: // returns reported solubility (mole fraction) for input "NC[C@H]1O[C@H](O[C@H]2[C@H](O)[C@@H](O[C@H]3O[C@H](CO)[C@@H](O)[C@H](N)[C@H]3O)[C@H](N)C[C@@H]2N)[C@H](N)C[C@@H]1O"
Return: 0.000708
